experiment: Drug interaction: effect of conmed on vibegron PK; format: in vivo, human; settings: human, plasma, oral, 100 mg QD + tolterodine ER 4 mg QD
OBSERVED_PROPERTY: AUC (ng·h/mL)
Number in ng·h/mL, nothing else.

Could you tell me which AUC is on file for O=C(Nc1ccc(C[C@@H]2CC[C@H]([C@H](O)c3ccccc3)N2)cc1)[C@@H]1CCc2nccc(=O)n21 [Vibegron] ?
1790

* * *

assay: Moderate hepatic impairment PK, single 100 mg; type: in vivo, human; settings: human, plasma, oral, 100 mg, healthy matched controls; read-out: Apparent terminal t1/2 (converted)
OBSERVED_PROPERTY: half-life (h)
Please give a number only; it is taken to be in h.

Endpoint output: half-life of O=C(Nc1ccc(C[C@@H]2CC[C@H]([C@H](O)c3ccccc3)N2)cc1)[C@@H]1CCc2nccc(=O)n21 [Vibegron] . Value?
92.5

* * *

test: Single rising oral dose Phase 1 PK, healthy adults (young males unless stated); format: in vivo, human; conditions: male, human, plasma, oral, 200 mg, single 200 mg, Japanese
OBSERVED_PROPERTY: AUC(0-inf) (ng·h/mL)
Expressed in ng·h/mL, but write only the number.

So what's the measured AUC(0-inf) for this one? O=C(Nc1ccc(C[C@@H]2CC[C@H]([C@H](O)c3ccccc3)N2)cc1)[C@@H]1CCc2nccc(=O)n21
5200

* * *

Test: Single rising oral dose Phase 1 PK, healthy adults (young males unless stated)
Format: in vivo, human
Details: male, human, plasma, oral, 100 mg, single 100 mg, Japanese
Description: The steady state AUC geometric mean accumulation ratios were ˜2 in young male subjects and ˜2.8 in elderly subjects (male and female). All subjects were healthy adults. […] Systemic exposures were greater than dose proportional up to 600 mg. Although exposures were similar in middle-aged males when compared to young males, plasma concentrations were higher in elderly compared to middle-aged and young subjects. […]
OBSERVED_PROPERTY: Cmax

Which Cmax is reported for this compound? O=C(Nc1ccc(C[C@@H]2CC[C@H]([C@H](O)c3ccccc3)N2)cc1)[C@@H]1CCc2nccc(=O)n21
190 ng/mL

* * *

assay: Drug interaction: effect of conmed on vibegron PK; type: in vivo, human; settings: human, plasma, oral, 100 mg, 100 mg single, alone (ketoconazole study)
OBSERVED_PROPERTY: AUC (ng·h/mL)
Number only, in ng·h/mL; omit the unit.

What value of measured AUC is listed for O=C(Nc1ccc(C[C@@H]2CC[C@H]([C@H](O)c3ccccc3)N2)cc1)[C@@H]1CCc2nccc(=O)n21 ?
1370

* * *

test: Multiple rising dose Phase 1 PK, healthy subjects, day 14 (young males unless stated); type: in vivo, human; settings: male, human, plasma, oral, 150 mg, 150 mg QD; read-out: t1/2 (converted)
OBSERVED_PROPERTY: half-life (h)
Give a bare numeral; the unit h is implied.

Fill in the blank: the reported half-life of O=C(Nc1ccc(C[C@@H]2CC[C@H]([C@H](O)c3ccccc3)N2)cc1)[C@@H]1CCc2nccc(=O)n21 [Vibegron] is ____.
79.2

* * *

experiment: Multiple rising dose Phase 1 PK, healthy subjects, day 14 (young males unless stated); type: in vivo, human; conditions: male, human, plasma, oral, 300 mg, 300 mg QD; read-out: AUC0-24
OBSERVED_PROPERTY: AUC(0-t)

So what does the record say about AUC(0-t) for O=C(Nc1ccc(C[C@@H]2CC[C@H]([C@H](O)c3ccccc3)N2)cc1)[C@@H]1CCc2nccc(=O)n21 ?
6980 ng·h/mL

* * *

test: Capsule vs tablet single-dose crossover PK, 150 mg, healthy males; assay type: in vivo; conditions: male, human, plasma, oral, 1 × 150 mg capsule
OBSERVED_PROPERTY: AUC(0-inf) (ng·h/mL)
Provide the reading as a plain figure in ng·h/mL.

Could you tell me which AUC(0-inf) is on file for O=C(Nc1ccc(C[C@@H]2CC[C@H]([C@H](O)c3ccccc3)N2)cc1)[C@@H]1CCc2nccc(=O)n21 [Vibegron] ?
2840

* * *

experiment: Single rising oral dose Phase 1 PK, healthy adults (young males unless stated); assay type: in vivo, human; details: male, human, plasma, oral, 300 mg, single 300 mg, Japanese
OBSERVED_PROPERTY: Cmax (ng/mL)
# number only, unit ng/mL dropped from output

State the recorded Cmax for this entry: O=C(Nc1ccc(C[C@@H]2CC[C@H]([C@H](O)c3ccccc3)N2)cc1)[C@@H]1CCc2nccc(=O)n21
733

* * *

experiment: Single rising oral dose Phase 1 PK, healthy adults (young males unless stated); format: in vivo, human; conditions: male, human, plasma, oral, 50 mg, single 50 mg; read-out: t1/2 (converted)
OBSERVED_PROPERTY: half-life (h)
Just the number please, in h, no unit attached.

Request the reported half-life associated with O=C(Nc1ccc(C[C@@H]2CC[C@H]([C@H](O)c3ccccc3)N2)cc1)[C@@H]1CCc2nccc(=O)n21
52

* * *

assay: Multiple rising dose Phase 1 PK, healthy subjects, day 14 (young males unless stated); assay type: in vivo, human; conditions: female, human, plasma, oral, 150 mg, 150 mg QD, middle-aged female, fasted; read-out: AUC0-24
OBSERVED_PROPERTY: AUC(0-t) (ng·h/mL)
API: value field is a number in ng·h/mL; no unit string.

Could you share which AUC(0-t) value was measured for O=C(Nc1ccc(C[C@@H]2CC[C@H]([C@H](O)c3ccccc3)N2)cc1)[C@@H]1CCc2nccc(=O)n21 ?
3180

* * *

assay: Multiple rising dose Phase 1 PK, healthy subjects, day 14 (young males unless stated); assay type: in vivo, human; settings: male, human, plasma, oral, 100 mg, 100 mg QD, Japanese; read-out: t1/2 (converted)
OBSERVED_PROPERTY: half-life
Reply with the number, then its unit.

// half-life lookup, key: O=C(Nc1ccc(C[C@@H]2CC[C@H]([C@H](O)c3ccccc3)N2)cc1)[C@@H]1CCc2nccc(=O)n21 [Vibegron]
56.8 h

* * *

Test: Drug interaction: effect of conmed on vibegron PK
Type: in vivo, human
Details: human, plasma, oral, 100 mg, 100 mg QD alone (tolterodine study)
Description: However, these interactions are not expected to be clinically significant.
OBSERVED_PROPERTY: Cmax
Enter the number, and then the unit.

Find the recorded Cmax belonging to O=C(Nc1ccc(C[C@@H]2CC[C@H]([C@H](O)c3ccccc3)N2)cc1)[C@@H]1CCc2nccc(=O)n21 and report it.
158 ng/mL

* * *

assay: Single rising oral dose Phase 1 PK, healthy adults (young males unless stated); type: in vivo, human; details: male, human, plasma, oral, 300 mg, single 300 mg, Japanese; read-out: AUC0-24
OBSERVED_PROPERTY: AUC(0-t) (ng·h/mL)
Provide the reading as a plain figure in ng·h/mL.

I would be grateful if you could share the reported AUC(0-t) for O=C(Nc1ccc(C[C@@H]2CC[C@H]([C@H](O)c3ccccc3)N2)cc1)[C@@H]1CCc2nccc(=O)n21 [Vibegron] .
4050

* * *

assay: Multiple rising dose Phase 1 PK, healthy subjects, day 14 (young males unless stated); format: in vivo, human; settings: male, human, plasma, oral, 200 mg, 200 mg QD; read-out: Cmax
OBSERVED_PROPERTY: Cmax (ng/mL)
// note: answer is a bare numeric in ng/mL

# lookup: Cmax of O=C(Nc1ccc(C[C@@H]2CC[C@H]([C@H](O)c3ccccc3)N2)cc1)[C@@H]1CCc2nccc(=O)n21 [Vibegron]
313

* * *

assay: Single rising oral dose Phase 1 PK, healthy adults (young males unless stated); format: in vivo, human; conditions: male, human, plasma, oral, 450 mg, single 450 mg; read-out: AUC0-24
OBSERVED_PROPERTY: AUC(0-t) (ng·h/mL)
Respond numerically; units are ng·h/mL and should not be typed.

Record request: AUC(0-t) value, item O=C(Nc1ccc(C[C@@H]2CC[C@H]([C@H](O)c3ccccc3)N2)cc1)[C@@H]1CCc2nccc(=O)n21 [Vibegron]
5510

* * *

experiment: Moderate hepatic impairment PK, single 100 mg; type: in vivo, human; details: human, plasma, oral, 100 mg, moderate hepatic impairment
OBSERVED_PROPERTY: Tmax (h)
Your answer is read as h, so omit the unit and give the number.

Tmax for O=C(Nc1ccc(C[C@@H]2CC[C@H]([C@H](O)c3ccccc3)N2)cc1)[C@@H]1CCc2nccc(=O)n21 ?
1

* * *

assay: Effect of food on oral absorption; type: in vivo, human; details: female, human, plasma, oral, 150 mg, 150 mg multiple dose day 14, middle-aged females, fed; read-out: AUC0-24
OBSERVED_PROPERTY: AUC(0-t) (ng·h/mL)
A number alone suffices; assume ng·h/mL.

What AUC(0-t) value was documented for this molecule, O=C(Nc1ccc(C[C@@H]2CC[C@H]([C@H](O)c3ccccc3)N2)cc1)[C@@H]1CCc2nccc(=O)n21 ?
2540
